src = patent US11034648B2

Property: MIC; scope: individual compounds
test system: E. coli WT DSM-1116; test: MIC, microbroth dilution susceptibility assay; type: cell-based; details: Escherichia coli, DSM1116; small panel, Tables 1a/1b; no visual growth after approx. 16 h; read-out: MIC E. coli WT DSM-1116

{"Smiles structure": "CC(C)Oc1c(NC(=O)c2ccc(NC(=O)[C@H](CC(N)=O)NC(=O)c3ccc(NC(=O)c4ccc(C#N)cc4)cc3)cc2)ccc(C(=O)NCc2ccc(C(=O)O)cc2)c1O", "MIC": "> 64 µg/mL"}
{"Smiles structure": "CC(C)Oc1c(NC(=O)c2ccc(NC(=O)[C@H](CC(N)=O)NC(=O)c3ccc(NC(=O)c4ccc(C#N)cc4)cc3)cc2)ccc(C(=O)Nc2ccn(C)c2)c1O", "MIC": "> 64 µg/mL"}
{"Smiles structure": "CC(C)Oc1c(NC(=O)c2ccc(NC(=O)[C@H](CC(N)=O)NC(=O)c3ccc(NC(=O)c4ccccc4[N+](=O)[O-])cc3)cc2)ccc(C(=O)Nc2ccc(C(=O)O)cc2)c1O", "MIC": "> 64 µg/mL"}
{"Smiles structure": "CC(C)Oc1c(NC(=O)c2ccc(NC(=O)[C@H](CC(N)=O)NC(=O)c3ccc(NC(=O)c4ccc(C#N)cc4)cc3)cc2)ccc(C(=O)Nc2ccc(S(=O)(=O)O)cc2)c1O", "MIC": "> 64 µg/mL"}
{"Smiles structure": "CC(C)Oc1c(NC(=O)c2ccc(NC(=O)[C@H](CC(N)=O)NC(=O)c3ccc(NC(=O)c4ccc5c(c4)COC5=O)cc3)cc2)ccc(C(=O)Nc2ccc(C(=O)O)cc2)c1O", "MIC": "< 0.03 µg/mL"}
